Molecular target: T1, insulin receptor on human lymphocyte cells (IM-9) (human, UniProt P06213 28-1382)
T1 construct: whole, on cells; Endogenous receptor of IM-9 cells; also called IR; insulin receptors
Test: whole cell receptor binding assay on IM-9 cells with 125I-insulin; EC50 of promoting 125I-insulin binding
Experimental: After incubation, the cells were chilled, centrifuged at 2000 rpm for 10 min at 4° C., and the pellets were washed twice with an ice-cold wash buffer (10 mmol/L Tris and 150 mmol/L NaCl, pH 7.6). The pellet was counted by a gamma counter. The assays were performed at least three times for each polypeptide. […] The lower value of EC₅₀ represents a stronger effect on promoting the binding.
Task for the reader: assign each of the following binders its reported pEC50.
One number for each entry, as −log10 of the molar value.

Look over these answered cases.
| BINDER | pEC50 |
| --- | --- |
| IVISVPTIG (Homologue of IRBP-60-68 with several residues replaced; synthetic) [IRBP-VV-2 (SEQ ID NO:180)] | 8.30 |
| LVVSPPRIG (Homologue of IRBP-60-68 with several residues replaced; synthetic) [IRBP-CM (SEQ ID NO:184)] | 9.04 |
| IVYQVPTIG (Homologue of IRBP-60-68 with several residues replaced; synthetic) [IRBP-MT (SEQ ID NO:179)] | 9.11 |
| IVTRVPVIG (Homologue of IRBP-60-68 with several residues replaced; synthetic) [IRBP-SN (SEQ ID NO:181)] | 8.01 |
| VVTSVPHIT (Homologue of IRBP-60-68 with several residues replaced; synthetic) [IRBP-LU (SEQ ID NO:188)] | 8.01 |
| IVVRNPTAG (Homologue of IRBP-60-68 with several residues replaced; synthetic) [IRBP-AT (SEQ ID NO:182)] | 8.00 |

The following binders each have a reported value; give each one's pEC50.
1. TVAKTPTIG (Homologue of IRBP-60-68 with several residues replaced; synthetic) [IRBP-OS (SEQ ID NO:183)]
2. IVSMVPKIG (Homologue of IRBP-60-68 with several residues replaced; synthetic) [IRBP-VV-1 (SEQ ID NO:185)]
3. IVARPPAIG [IRBP-MC (SEQ ID NO:21)]

Result:
8.00
9.02
9.07

Please go through the list and note pEC50 for each binder.
1. KVIRVPRIG (Homologue of IRBP-60-68 with several residues replaced; synthetic) [IRBP-CP (SEQ ID NO:186)]
2. IVIRTPIIT (Homologue of IRBP-60-68 with several residues replaced; synthetic) [IRBP-ZE (SEQ ID NO:187)]

Result:
[9.08, 8.31]
